Consider the following binders; for each one, report its fold change of affinity.
Test System: T1, Human CD137 ECD (human)
T1 construct: also called 4-1BB
T1 sequence (chain, as listed by the source limits assumed): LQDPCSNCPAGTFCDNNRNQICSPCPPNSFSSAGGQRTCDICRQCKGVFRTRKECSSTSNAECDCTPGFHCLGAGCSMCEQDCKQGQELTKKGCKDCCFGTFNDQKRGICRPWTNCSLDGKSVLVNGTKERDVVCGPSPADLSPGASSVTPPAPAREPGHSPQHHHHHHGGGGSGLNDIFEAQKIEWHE
Measurement Notes: single mutant vs template dBBDu183H
Answers are plain numbers, in fold.

Here is how some binders turned out for fold change of affinity.
H183/L072 VH F100gA (antibody, name in Kabat numbering, V domains shown) VH: QVQLVESGGGLVQPGRSLRLSCAASGFTFSNAWMHWVRQAPGKGLEWVAQIKDKGNAYAAYYAPSVKGRFTISRDDSKNSIYLQMNSLKTEDTAVYYCHYVHYASASTVLPAAGVDAWGQGTTVTVSS VL: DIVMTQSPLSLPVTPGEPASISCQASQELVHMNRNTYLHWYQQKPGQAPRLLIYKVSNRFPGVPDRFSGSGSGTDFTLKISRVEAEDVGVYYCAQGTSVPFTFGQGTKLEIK ... 0.5
H183/L072 VH Y55H (antibody, name in Kabat numbering, V domains shown) VH: QVQLVESGGGLVQPGRSLRLSCAASGFTFSNAWMHWVRQAPGKGLEWVAQIKDKGNAHAAYYAPSVKGRFTISRDDSKNSIYLQMNSLKTEDTAVYYCHYVHYASASTVLPAFGVDAWGQGTTVTVSS VL: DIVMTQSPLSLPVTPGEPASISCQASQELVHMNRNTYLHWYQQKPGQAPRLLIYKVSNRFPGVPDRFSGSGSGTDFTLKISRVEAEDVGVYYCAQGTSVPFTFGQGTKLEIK ... 0.4
H183/L072 VH F29I (antibody, name in Kabat numbering, V domains shown) VH: QVQLVESGGGLVQPGRSLRLSCAASGFTISNAWMHWVRQAPGKGLEWVAQIKDKGNAYAAYYAPSVKGRFTISRDDSKNSIYLQMNSLKTEDTAVYYCHYVHYASASTVLPAFGVDAWGQGTTVTVSS VL: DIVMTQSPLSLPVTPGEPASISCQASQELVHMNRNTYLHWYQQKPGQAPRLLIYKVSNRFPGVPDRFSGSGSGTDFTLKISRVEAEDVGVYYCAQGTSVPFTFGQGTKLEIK ... 0.3
H183/L072 VH T28Q (antibody, name in Kabat numbering, V domains shown) VH: QVQLVESGGGLVQPGRSLRLSCAASGFQFSNAWMHWVRQAPGKGLEWVAQIKDKGNAYAAYYAPSVKGRFTISRDDSKNSIYLQMNSLKTEDTAVYYCHYVHYASASTVLPAFGVDAWGQGTTVTVSS VL: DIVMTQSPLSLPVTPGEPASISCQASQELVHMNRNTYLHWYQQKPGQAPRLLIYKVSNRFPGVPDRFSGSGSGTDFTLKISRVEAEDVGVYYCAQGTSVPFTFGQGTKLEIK ... 0.5

Next binder, please.
State the recorded fold change of affinity for this entry: H183/L072 VH Y55Q (antibody, name in Kabat numbering, V domains shown) VH: QVQLVESGGGLVQPGRSLRLSCAASGFTFSNAWMHWVRQAPGKGLEWVAQIKDKGNAQAAYYAPSVKGRFTISRDDSKNSIYLQMNSLKTEDTAVYYCHYVHYASASTVLPAFGVDAWGQGTTVTVSS VL: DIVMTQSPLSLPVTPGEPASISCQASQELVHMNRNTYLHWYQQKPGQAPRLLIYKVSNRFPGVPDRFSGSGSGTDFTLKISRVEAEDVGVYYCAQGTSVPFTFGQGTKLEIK
0.2
